Would you kindly list binding signal for each of these binders?
# assayTarget: T1, RBFOX1 RRM (Homo sapiens, UniProt Q9NWB1 109-208)
# T1 sequence: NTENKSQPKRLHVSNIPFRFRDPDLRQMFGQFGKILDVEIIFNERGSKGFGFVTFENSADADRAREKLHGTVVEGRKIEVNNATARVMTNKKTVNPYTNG
# experimentDescription: EMSA; HiTS-Eq, 1 nM pool, 10 min; buffer printed only for the single-RNA assays: 10 mM Tris pH 7.5, 150 mM NaCl, 3.4 mM EDTA, 0.001% NP-40, 30 C
# conditions: tags: His6 N-terminal (pET28a); label: 5' 32P
Over roughly 16,000 sequences, “ka relative to ugcaugu” has its median near 0.0091; the highest 2% begin near 0.032. Only a selection was taken, and the highest values are over-represented in it overall.

What does the record list as binding signal for UUUUGUG (DNA:RNA) RNA: GGGAGACCGGAAUUCAGAUUGUCCUUUUGUGUUAAAUCCCGUCGUAGCCACCA DNA 1: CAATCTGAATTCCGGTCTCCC DNA 2: TGGTGGCTACGACGGGATT ?
0.0302 KA relative to UGCAUGU

Next:
What does the record list as binding signal for UUUGUUG (DNA:RNA) RNA: GGGAGACCGGAAUUCAGAUUGUCCUUUGUUGUUAAAUCCCGUCGUAGCCACCA DNA 1: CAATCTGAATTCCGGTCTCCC DNA 2: TGGTGGCTACGACGGGATT ?
0.0349 KA relative to UGCAUGU

Each recorded value in this set is attributed to paper PMC9911399.
